Assay comment: Plasma clearance in iv dosed Beagle dog
Format: ADME, organism-based, Canis lupus familiaris
Property name: clearance (mL/min)

INSERT INTO results (molecule, value_units, measured_result) VALUES
  ('N=C(N)c1ccc2[nH]c(-c3cc(C(CC(=O)O)C(=O)O)cc(-c4cc(CNC(N)=O)ccc4O)c3O)nc2c1 (stereo unspecified)', 'mL/min', 30.5);

====

Assay comment: Mean residence time in iv dosed Sprague-Dawley rat
Format: ADME, organism-based
Condition label: in vivo
Property name: MRT (h)

INSERT INTO results (molecule, measured_result) VALUES
  ('N=C(N)c1ccc2[nH]c(-c3cc(C(CC(=O)O)C(=O)O)cc(-c4cc(CNC(N)=O)ccc4O)c3O)nc2c1 (stereo unspecified)', 1.15);

====

Assay comment: Mean residence time in iv dosed New Zealand White rabbit
Type: ADME, organism-based, Oryctolagus cuniculus
Condition label: in vivo
Property name: MRT (h)

INSERT INTO measurements (compound, value_units, measured_result) VALUES
  ('N=C(N)c1ccc2[nH]c(-c3cc(C(CC(=O)O)C(=O)O)cc(-c4cc(CNC(N)=O)ccc4O)c3O)nc2c1 (stereo unspecified)', 'h', 3.03);

====

Target or test system: UniProtKB P11712
Sequence (P11712 whole entry): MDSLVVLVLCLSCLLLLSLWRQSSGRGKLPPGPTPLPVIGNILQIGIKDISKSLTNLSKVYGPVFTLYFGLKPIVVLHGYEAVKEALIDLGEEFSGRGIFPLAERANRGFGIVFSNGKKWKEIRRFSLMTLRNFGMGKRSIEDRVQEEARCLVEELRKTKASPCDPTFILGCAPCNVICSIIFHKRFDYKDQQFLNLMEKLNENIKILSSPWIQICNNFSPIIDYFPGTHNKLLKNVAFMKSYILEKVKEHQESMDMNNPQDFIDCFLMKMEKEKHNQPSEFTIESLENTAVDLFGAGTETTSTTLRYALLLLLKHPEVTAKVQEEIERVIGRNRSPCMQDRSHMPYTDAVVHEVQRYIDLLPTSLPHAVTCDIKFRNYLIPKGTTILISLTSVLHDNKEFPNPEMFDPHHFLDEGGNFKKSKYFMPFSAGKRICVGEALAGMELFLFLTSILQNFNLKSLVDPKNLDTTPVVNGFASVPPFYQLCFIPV
Assay comment: Inhibition of CYP2C9 at 10 uM
Assay type: ADME
Property name: inhibition at 10 µM

INSERT INTO measurements (compound, measured_result) VALUES
  ('N=C(N)c1ccc2[nH]c(-c3cc(C(CC(=O)O)C(=O)O)cc(-c4cc(CNC(N)=O)ccc4O)c3O)nc2c1 (stereo unspecified)', '< 40%');

====

Target or test system: Coagulation factor VII/tissue factor (Homo sapiens) (UniProt P08709+P13726)
Assay comment: Selectivity for fVIIa/TF complex over fXa
Assay type: protein-complex assay
# label = 1.0 if Ratio Ki >= 400 else 0.0

INSERT INTO measurements (molecule, target_or_test_system, classification) VALUES
  ('N=C(N)c1ccc2[nH]c(-c3cc(C(CC(=O)O)C(=O)O)cc(-c4cc(CCC(=O)O)ccc4O)c3O)nc2c1 (stereo not given)', 'Coagulation factor VII/tissue factor (Homo sapiens) (UniProt P08709+P13726)', 0.0),
  ('N=C(N)c1ccc2[nH]c(-c3cc(C(CC(=O)O)C(=O)O)cc(-c4cc(NC(N)=O)ccc4O)c3O)nc2c1 (stereo not given)', 'Coagulation factor VII/tissue factor (Homo sapiens) (UniProt P08709+P13726)', 0.0),
  ('N=C(N)c1ccc2[nH]c(-c3cc(C(CC(=O)O)C(=O)O)cc(-c4cc(CC(=O)O)ccc4O)c3O)nc2c1 (stereo not given)', 'Coagulation factor VII/tissue factor (Homo sapiens) (UniProt P08709+P13726)', 0.0),
  ('N=C(N)c1ccc2[nH]c(-c3cc(C(CC(=O)O)C(=O)O)cc(-c4cc(F)ccc4O)c3O)nc2c1 (stereo not given)', 'Coagulation factor VII/tissue factor (Homo sapiens) (UniProt P08709+P13726)', 1.0),
  ('N=C(N)c1ccc2[nH]c(-c3cc(C(CC(=O)O)C(=O)O)cc(-c4cc(C(N)=O)ccc4O)c3O)nc2c1 (stereo not given)', 'Coagulation factor VII/tissue factor (Homo sapiens) (UniProt P08709+P13726)', 1.0);

====

Target or test system: Coagulation factor VII (Homo sapiens)
Sequence (P08709 whole entry): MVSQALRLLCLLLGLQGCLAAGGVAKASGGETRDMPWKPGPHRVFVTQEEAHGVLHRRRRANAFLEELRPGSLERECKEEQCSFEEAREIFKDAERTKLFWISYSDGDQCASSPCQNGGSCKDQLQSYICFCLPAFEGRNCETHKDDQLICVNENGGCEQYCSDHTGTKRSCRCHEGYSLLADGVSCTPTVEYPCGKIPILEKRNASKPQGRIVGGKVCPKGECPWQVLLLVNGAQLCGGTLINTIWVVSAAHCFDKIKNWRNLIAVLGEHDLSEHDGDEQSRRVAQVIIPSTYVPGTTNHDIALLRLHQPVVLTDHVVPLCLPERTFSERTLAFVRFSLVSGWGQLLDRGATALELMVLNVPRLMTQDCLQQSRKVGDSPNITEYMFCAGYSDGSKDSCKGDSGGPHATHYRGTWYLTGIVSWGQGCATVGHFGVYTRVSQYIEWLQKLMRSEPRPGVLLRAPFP
Assay comment: Binding affinity to F7a/TF complex
Property name: Ki (nM)

INSERT INTO assay_data (molecule, value_units, measured_result) VALUES
  ('N=C(N)c1ccc2nc(-c3cc(C(CC(=O)O)C(=O)O)cc(-c4cc(CC(=O)O)ccc4O)c3O)[nH]c2c1 (stereo not drawn)', 'nM', 12),
  ('N=C(N)c1ccc2[nH]c(-c3cc(C(CC(=O)O)C(=O)O)cc(-c4cc(C(=O)O)ccc4O)c3O)nc2c1 (stereo not drawn)', 'nM', 43),
  ('N=C(N)c1ccc2[nH]c(-c3cc(C(CC(=O)O)C(=O)O)cc(-c4cc(NC(N)=O)ccc4O)c3O)nc2c1 (stereo not drawn)', 'nM', 44);
